protocol: NCI Yeast Anticancer Drug Screen. Data for the rad50 strain (AID 155);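 also: 0% = growth of vehicle-only cultures of the same strain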
condition: S. cerevisiae rad50 strain growth inhibition; at 5.0 µM (retest, dose inferred, filed as 0.5); active compounds read high
About 79,000 compounds went through this panel and 15% of them were active in at least one assay; those are over-represented in the sample as a whole.
Field: growth inhibition. Provide a value for each of the compounds that follow.
Answer with a number only, understood to be in %.

Please report the recorded growth inhibition for Cc1cc2c(C(C)C)c(O)c(O)c(C=Nc3ccc(C(=O)O)cc3)c2c(O)c1-c1c(C)cc2c(C(C)C)c(O)c(O)c(C=Nc3ccc(C(=O)O)cc3)c2c1O .
14

And the next one, Nc1ncnc2nc(SCCO)[nH]c12 ?
-1

And the next one, CC(C)=CCC/C(C)=C/CCC1(C)C=Cc2c(c3ccccc3oc2=O)O1 (stereo not drawn) ?
28
